# System: MOLT-4 leukemia
# Protocol: NCI-60 one-dose screen, 48 h (100 = growth as untreated, 0 = no growth, -100 = all killed)
# Assay context: 10 µM unless noted
About 83,000 compounds went through this panel and 20% of them were active in at least one assay; those are over-represented in the sample as a whole.
Measured parameter: growth (%)

Molecule | Recorded value
Cc1cn(C2CCCCC2)c(=O)[nH]c1=O | 96.6
COc1cc2ccccc2cc1C(=O)NC(=S)Nc1ccc(-c2nc3ccccc3[nH]2)cc1 | 91.1
O=[N+]([O-])c1ccccc1C(O)Cc1ccc2ccccc2n1 (centres undefined) | -6.33
CCOC(=O)c1c(C)nc2c(c1N)/C(=C/c1cc(OC)c(OC)c(OC)c1)C(=O)N2c1ccc(OC)cc1 | 17.6
COc1cc(/C=C/c2nc(Nc3ccc(S(=O)(=O)Nc4cc(C)on4)cc3)c3ccccc3n2)ccc1O | 42.1
N[C@@H]1CCC[C@H]1NCCCCN1C(=O)c2cccc3cccc(c23)C1=O | 30.8
CCOC(=O)N1CCc2c(sc3c2C(=O)N[C@H](c2ccc(OC)cc2)N3)C1 | 99.7
Cc1nc(Nc2ccc(N)cc2)c2ccccc2n1 | 100
O=S(=O)(Nc1ccsc1-c1nc(-c2ccccc2)no1)c1cc(Cl)cc(Cl)c1 | 104
COc1ccc(NC(=O)c2cccc(-c3cc(=O)c4c(O)c(OC)c(OC)cc4o3)c2)cc1 | 103
COc1cc2oc(-c3cccc(C(=O)Nc4ccc(C#N)cc4)c3)cc(=O)c2c(O)c1OC | 88.3
COc1ccc(NC(=O)C(=O)c2c[nH]c3ccc(F)cc23)cc1 | 90.8
COC(=O)CCCNC(=O)C(=O)c1c(O)c(O)c(C(C)C)c2cc(C)c(-c3c(C)cc4c(C(C)C)c(O)c(O)c(C(=O)C(=O)NCCCC(=O)OC)c4c3O)c(O)c12 | 8.94
C=CC(=O)Nc1cccc(C)c1Nc1cc(-c2cccnc2Cc2c(C)c(OC)cc(OC)c2C)ncn1 | -7.26
COc1cc(/C=C/C(=O)c2cccc(-n3cc(-c4ccc(Cl)cc4)[nH]c3=O)c2)cc(OC)c1OC | 26.8
COc1cccc(-c2nc3sccn3c2-c2ccnc(NCCNS(=O)(=O)c3c(Cl)cccc3Cl)c2)c1 | 33.7
CN(CCC(=O)/C(=C\c1ccccc1)c1ccc(Cl)cc1)Cc1ccccc1 | 6.05
O=C(Nc1cccc2[nH]c(C(F)(F)F)nc12)c1cc(Cl)ccc1Cl | 17.9
CCC(=O)OC1=C(C)SC2=NC(c3ccc(Cl)c(Cl)c3)=CC(c3cc(OC)c(OC)c(OC)c3)N21 (centres undefined) | 99.3

---

# System: SF-268 CNS
# Protocol: NCI-60 one-dose screen, 48 h (100 = growth as untreated, 0 = no growth, -100 = all killed)
# Assay context: 10 µM unless noted
# Protocol: Cells are grown in 96 well plates and exposed to the test compound for 48 hours. Compounds are tested at a single concentration, which is 10^-5 M for most compounds. The reported endpoint is percent growth (GI% or GIPRCNT), where numbers from 0 - 100% represent growth inhibition, and numbers from -100% - 0 represent cell death. For example, a value of 40 represents 60% growth inhibition. A value of 0 means no net growth occurred over the course of the experiment. […]
About 83,000 compounds went through this panel and 20% of them were active in at least one assay; those are over-represented in the sample as a whole. Calls of active or inactive are those of the source. How the source made its calls: active means growth percent below 10; inactive means the rest.
Measured parameter: growth

Molecule | Measured parameter | Recorded value
CCn1nc(C#Cc2c(C)ccc3c(Nc4ccc(Cl)cc4)nccc23)c2c(N)ncnc21 | growth | 17.5% (inactive)
Cn1cc(Nc2nccc(-c3ccc(N4CCCC4)c(C#N)c3)n2)cn1 | growth | 45.9% (inactive)
CN(C)c1ccc(-c2cc(-c3ccc(Nc4nc(Nc5ccccc5)nc(Nc5ccc(Cl)cc5)n4)cc3)nc(N)n2)cc1 | growth | 50.8% (inactive)
O=C(Oc1ccc[nH]c1=O)c1cc([N+](=O)[O-])cc([N+](=O)[O-])c1 | growth | 116% (inactive)
CCNCCNc1cc(-c2ccc(C(=O)OC)cc2)c(C#N)c2nc3ccccc3n12 | growth | 30.8% (inactive)
COC(=O)CCCNC(=O)C(=O)c1c(O)c(O)c(C(C)C)c2cc(C)c(-c3c(C)cc4c(C(C)C)c(O)c(O)c(C(=O)C(=O)NCCCC(=O)OC)c4c3O)c(O)c12 | growth | 8.13% (active)
Cc1cc(C(c2ccccc2)c2ccccc2)ccc1NS(=O)(=O)c1ccccc1 | growth | 85.9% (inactive)
COc1ccc(-n2ncn(CCCCCCn3cnn(-c4ccc(OC)cc4)c3=O)c2=O)cc1 | growth | 91.4% (inactive)
CCN(CC)CC(O)CNc1c2ccc(Cl)cc2nc2ccc(OC)cc12 (centres undefined) | growth | 14.8% (inactive)

---

# System: OVCAR-5 ovarian
# Protocol: NCI-60 one-dose screen, 48 h (100 = growth as untreated, 0 = no growth, -100 = all killed)
# Assay context: 10 µM unless noted
Compounds without any hit were thinned out: in the full panel of roughly 83,000, 20% have a hit. Calls of active or inactive are those of the source. How the source made its calls: active means growth percent below 10; inactive means the rest.
Each item that follows carries a reported growth.
Measured parameter: growth

Molecule | Target under test | Measured parameter | Recorded value
C=C(C)[C@@H]1CC[C@]2(CN)CC[C@]3(C)[C@H](CC[C@@H]4[C@@]5(C)CCC(N)[C@@](C)(CO)[C@@H]5CC[C@]43C)[C@@H]12 (some centres undefined) | OVCAR-5 ovarian | growth | 48.5% (inactive)
CN(C)c1ccc(-c2cc(-c3ccc(Nc4nc(Nc5ccccc5)nc(Nc5ccc(Cl)cc5)n4)cc3)nc(N)n2)cc1 | OVCAR-5 ovarian | growth | 36.6% (inactive)
Cc1cc(-c2noc(C(F)(F)F)n2)ccc1N1CCN(c2cc(C(=O)N(C)C)no2)CC1 | OVCAR-5 ovarian | growth | 102% (inactive)
CNCCNc1nc2ccccc2c2c(=O)c3cc(F)ccc3oc12 | OVCAR-5 ovarian | growth | 80.4% (inactive)
CCNCCNc1cc(-c2ccc(Cl)cc2)c(C#N)c2nc3ccccc3n12 | OVCAR-5 ovarian | growth | 4.7% (active)
O=c1oc2ccc(Cl)cc2cc1-c1cs/c(=N/N=C\c2ccc(Cl)cc2)n1/N=C/c1ccc(Cl)cc1 | OVCAR-5 ovarian | growth | 107% (inactive)
CCOC(=O)N1CCc2c(sc3c2C(=O)N[C@H](c2ccc(OC)cc2)N3)C1 | OVCAR-5 ovarian | growth | 108% (inactive)
C/C(=N\NC(N)=S)c1nc2ccc(Cl)cc2[nH]1 | OVCAR-5 ovarian | growth | 69.8% (inactive)
CN(C)CCN1C(=O)c2cccc3c(-c4ccc(-c5nc6c7ccccc7c7ccccc7c6[nH]5)cc4)ccc(c23)C1=O | OVCAR-5 ovarian | growth | 123% (inactive)
Cc1nc(Nc2ccc(NC(=S)Nc3ccccc3)cc2)nc2nc(Nc3cccc(Cl)c3)[nH]c(=O)c12 | OVCAR-5 ovarian | growth | 101% (inactive)
O=C1Nc2ccccc2SC1C1SC(=S)N(Cc2ccccc2)C1=O (centres undefined) | OVCAR-5 ovarian | growth | 104% (inactive)
COC1=CC(c2ccc[nH]2)=N/C1=C\c1[nH]c(C)c(C(=O)OCCn2cc(CCC[C@@H]3Cc4cc(O)ccc4C4CC[C@]5(C)[C@@H](O)CC[C@H]5C43)nn2)c1C (some centres undefined) | OVCAR-5 ovarian | growth | 88.9% (inactive)
CC(C)(C)c1ccc(C(=O)Nc2sc3c(c2C(N)=O)CCC(=O)C3)cc1 | OVCAR-5 ovarian | growth | 12.3% (inactive)
CCCCOC(=O)c1ccc(NC(=O)C(C)N2CCOCC2)cc1 (centres undefined) | OVCAR-5 ovarian | growth | 112% (inactive)
CN(C)c1ccc(/C=C/c2c(F)cccc2F)cc1 | OVCAR-5 ovarian | growth | 104% (inactive)
CCC(C)NCc1ccccc1 (centres undefined) | OVCAR-5 ovarian | growth | 114% (inactive)
CN1C(=O)CCC(N2C(=O)c3cccc(NCCOCCOCCNC(=O)c4cc5c(o4)C(=O)c4ccccc4C5=O)c3C2=O)C1=O (centres undefined) | OVCAR-5 ovarian | growth | -85.5% (active)
COc1ccc(-c2cc(-c3cc(OC)ccc3O)[nH]c(=O)c2C#N)cc1 | OVCAR-5 ovarian | growth | 119% (inactive)
COc1c(C)cnc(CSc2nc(-c3ccc(C)cc3)cn2-c2ccc(Cl)cc2)c1C | OVCAR-5 ovarian | growth | 97.5% (inactive)

---

# Tested on: MDA-MB-435 melanoma
# Protocol: NCI-60 one-dose screen, 48 h
# Assay context: 10 µM unless noted
This is part of a sample that, as a whole, favours compounds with a hit. Of some 83,000 tested, about 20% had one in any assay. Active and inactive are the calls of the source. The calls were made as follows: active = growth percent below 10; inactive = the rest.
Labels: 1 for active, 0 for inactive

Compound | Target under test | Assigned class
C[C@H]1[C@H](C)CC[C@]2(C(=O)N3CCN(C)CC3)CC[C@]3(C)C(=CC[C@@H]4[C@@]5(C)C/C(=C/c6cccnc6)C(=O)C(C)(C)[C@@H]5CC[C@]43C)[C@H]12 | MDA-MB-435 melanoma | 1
Cc1cc(C(c2ccccc2)c2ccccc2)ccc1NS(=O)(=O)c1ccccc1 | MDA-MB-435 melanoma | 0
Cc1cnc(Nc2ccc(OCCN3CCCC3)cc2)nc1NCc1ccco1 | MDA-MB-435 melanoma | 0
Nc1ccc(S(=O)(=O)Nc2ccsc2-c2nc(-c3ccccc3)no2)cc1 | MDA-MB-435 melanoma | 1
CCOc1cc(N)ccc1C(=O)NCCCN(CC)CC | MDA-MB-435 melanoma | 0
CC(C)c1ccc(C(=O)OC(=O)c2ccc(C(C)C)cc2)cc1 | MDA-MB-435 melanoma | 0
O=c1ccn(C2OC(F)(CO)C(O)C2F)c(=O)[nH]1 (stereo not given) | MDA-MB-435 melanoma | 0
COc1cc(-c2ncn(/C=C\c3nnco3)n2)cc(C(F)(F)F)c1 | MDA-MB-435 melanoma | 1
COc1cc(CNC(=O)/C=C/C=C/c2ccc3c(c2)OCO3)ccc1OCc1cn(-c2ccc(Cl)c(Cl)c2)nn1 | MDA-MB-435 melanoma | 1
c1ccc2c(c1)nc(-n1ccnc1)c1nc3ccccc3n12 | MDA-MB-435 melanoma | 0
